The measurements presented in this section are drawn from patent US8580829B2.

Please go through the items and note down their IC50.
# Study target: recombinant human FLAP protein (Homo sapiens)
# Sequence (P20292 whole entry): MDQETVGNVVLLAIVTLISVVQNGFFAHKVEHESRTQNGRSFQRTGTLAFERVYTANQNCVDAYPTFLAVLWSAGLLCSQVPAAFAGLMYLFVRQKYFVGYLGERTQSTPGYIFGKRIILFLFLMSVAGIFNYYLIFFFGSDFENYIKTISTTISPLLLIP
# Method description: FLAP binding assay (Scintillation Proximity Assay, displacement of [125I]L-691,831)
# Assay conditions: recombinant human FLAP membranes, [125I]L-691,831 probe; read-out: FLAP SPA IC50
Give bare numbers, in nM.

Compound	IC50 [nM]
COC(=O)c1cnc(-c2nc(C3(c4ccc(-c5cnc(N)nc5)cc4)CCC3)no2)cn1 [Example 1]	8.4
Nc1ncc(-c2ccc(C3(c4noc(-c5cnn(CCN6CCCC6)c5)n4)CCC3)cc2)cn1 [Example 253]	8.1
Nc1ncc(-c2ccc(C3(c4noc(-c5nc[nH]n5)n4)CCC3)cc2)cn1 [Example 156]	13

Could I get IC50 for every one of these entries?
1. CC(C)(O)Cc1nc(C2(c3ccc(-c4cnc(N)nc4)cc3)CCC2)no1 [Example 278]
2. COc1cc(-c2nc(C3(c4ccc(-c5cnc(N)nc5)cc4)CCC3)no2)ccn1 [Example 174]
3. Nc1ncc(-c2ccc(C3(c4noc(-c5ccncc5)n4)CCOCC3)cc2)cn1 [Example 147]
4. CCNC(=O)Cn1cc(-c2nc(C3(c4ccc(-c5cnc(N)nc5)cc4)CCC3)no2)cn1 [Example 204]
5. Cn1cc(-c2nc(C3(c4ccc(-c5cnc(N)nc5)cc4)CC(C)(C)C3)no2)cn1 [Example 123]
6. CCN(C)C(=O)Cn1cc(-c2nc(C3(c4ccc(-c5cnc(N)nc5)cc4)CCC3)no2)cn1 [Example 206]

78
5.3
33
4.5
35
4.3

List the reported IC50 of each compound below.
1. Cc1cc(-c2nc(C3(c4ccc(-c5cnc(N)nc5)cc4)CCC3)no2)[nH]n1 [Example 5]
2. CC(C)(O)CNc1ccc(-c2nc(C3(c4ccc(-c5cnc(N)nc5)cc4)CCC3)no2)nn1 [Example 114]
3. CCn1nc(C)cc1-c1nc(C2(c3ccc(-c4cnc(N)nc4)cc3)CCC2)no1 [Example 162]
4. Nc1ncc(-c2ccc(C3(c4noc(-c5cnn(CC(=O)N6CCCC6)c5)n4)CCC3)cc2)cn1 [Example 137]

[2.4, 2.6, 6.4, 7.7]

The following compounds each have a reported value; give each one's IC50.
1. Cn1cc(-c2nc(C3(c4ccc(-c5ccc(N)nn5)cc4)CCC3)no2)cn1 [Example 258]
2. Nc1ncc(-c2ccc(C3(c4noc(-c5ccc(NCCO)nn5)n4)CCC3)cc2)cn1 [Example 112]

73
1.4
